- assayConditions: Liquid; Gas Chromatography
Provide the reported Normal boiling temperature of each item.
Note: unit °C is implicit; provide only the numeric part.

**Q:** Returns the measured Normal boiling temperature for the input compound. Input: CCCCCOP(=O)(CCCCC)OCCCCC [dipentyl pentylphosphonate]
**A:** 332.64

**Q:** Returns the measured Normal boiling temperature for the input compound. Input: CCCCOP(=O)(CCCC)OCCCC [dibutyl butanephosphonate]
**A:** 292.92

**Q:** Returns the measured Normal boiling temperature for the input compound. Input: CCCCCP(=O)(OCCC(C)C)OCCC(C)C [diisopentyl pentylphosphonate]
**A:** 321.52

**Q:** Returns the measured Normal boiling temperature for the input compound. Input: CCCCCOP(=O)(CCCC)OCCCCC [dipentyl butylphosphonate]
**A:** 319.84

**Q:** Returns the measured Normal boiling temperature for the input compound. Input: CCCCP(=O)(OCCC(C)C)OCCC(C)C [diisopentyl butylphosphonate]
**A:** 306.90

**Q:** Returns the measured Normal boiling temperature for the input compound. Input: CCCCCCCCP(=O)(OCCCC)OCCCC [dibutyl octylphosphonate]
**A:** 332.96

**Q:** Returns the measured Normal boiling temperature for the input compound. Input: CCCCCCP(=O)(OCCCCC)OCCCCC [dipentyl hexylphosphonate]
**A:** 344.43

**Q:** Returns the measured Normal boiling temperature for the input compound. Input: CCCCCP(=O)(OCCCC)OCCCC [dibutyl pentylphosphonate]
**A:** 306.70

**Q:** Returns the measured Normal boiling temperature for the input compound. Input: CCCCCCP(=O)(OCCC(C)C)OCCC(C)C [diisopentyl hexylphosphonate]
**A:** 332.33

**Q:** Returns the measured Normal boiling temperature for the input compound. Input: CCCCCCP(=O)(OCCCC)OCCCC [dibutyl hexylphosphonate]
**A:** 319.92

// data source = the NIST ThermoML archive (doi:10.1016/j.tca.2014.11.027)
